assayTarget: CCK-1 receptors (Rattus norvegicus, UniProt P30551)
Construct: The pancreatic acini obtained from the outbred male rat pancreas of the Sprague Dawley strain; from tissue; host or cells: isolated pancreatic acini of male Sprague Dawley rats
Sequence (P30551 whole entry): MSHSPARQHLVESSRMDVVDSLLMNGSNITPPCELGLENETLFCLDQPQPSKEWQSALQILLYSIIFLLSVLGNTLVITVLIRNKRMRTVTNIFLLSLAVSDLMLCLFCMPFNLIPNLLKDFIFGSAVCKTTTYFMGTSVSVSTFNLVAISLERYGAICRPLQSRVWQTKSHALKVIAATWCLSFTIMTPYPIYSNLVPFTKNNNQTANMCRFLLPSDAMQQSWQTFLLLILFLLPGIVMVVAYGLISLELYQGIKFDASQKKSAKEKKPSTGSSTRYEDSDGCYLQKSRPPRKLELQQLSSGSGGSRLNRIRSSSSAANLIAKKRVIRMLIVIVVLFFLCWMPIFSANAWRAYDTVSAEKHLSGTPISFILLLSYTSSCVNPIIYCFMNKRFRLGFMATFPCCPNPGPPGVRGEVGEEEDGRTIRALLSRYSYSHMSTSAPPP
protocolDetails: Inhibition of binding of [125I]-BH-CCK-8 to isolated rat pancreatic acini
measurementSetup: 30 minutes at 37° C.; at least 3 experiments; read-out: IC50, inhibition of binding of [125I]-BH-CCK-8 to isolated rat pancreatic acini
molecules and their reported pIC50
Bear in mind: pIC50 is minus log10 of a mol/L concentration; give just that figure.

| molecule | pIC50 |
| --- | --- |
| O=C(Nc1ccccc1C(=O)NC(Cc1ccc([N+](=O)[O-])cc1)C(=O)O)c1cc2ccccc2[nH]1 (stereo not shown) | 6.37 |

For CCK-1 receptors (Rattus norvegicus, UniProt P30551), provide pIC50 of CC(C)CCC(NC(=O)c1ccccc1NC(=O)c1cc2ccccc2[nH]1)C(=O)O (stereo not shown) please.
7.10

For CCK-1 receptors (Rattus norvegicus, UniProt P30551), provide pIC50 of Cc1ccccc1CCC(NC(=O)c1ccccc1NC(=O)c1cc2cc(F)ccc2[nH]1)C(=O)O (stereo not shown) please.
8.05

Request body: readout pIC50, system CCK-1 receptors (Rattus norvegicus, UniProt P30551), query CC(C)CC(NC(=O)c1ccccc1NC(=O)c1cc2ccccc2[nH]1)C(=O)O (stereo not shown) . Return the value.
7.22

What is its pIC50 for CCK-1 receptors (Rattus norvegicus, UniProt P30551)? Entry: COc1cccc(CCC(NC(=O)c2ccccc2NC(=O)c2cc3ccccc3[nH]2)C(=O)O)c1 (stereo not shown)
8.00
